Below is a list of entries, each paired with its recorded recombinant barcode read abundance (log10) value.
test.name: recombinant barcode read abundance after kanamycin selection (control-corrected) (log10(CPM+1)); higher = more efficient recombination; sequences stand for … in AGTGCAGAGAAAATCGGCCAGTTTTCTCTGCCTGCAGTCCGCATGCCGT…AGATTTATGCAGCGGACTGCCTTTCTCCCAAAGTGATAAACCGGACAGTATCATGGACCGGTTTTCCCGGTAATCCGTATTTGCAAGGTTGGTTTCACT; site = the 11-nt target;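 note: IS621 recombinase and bridge RNA in Escherichia coli cells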
readout: recombinant barcode read abundance (log10)

>>> numeric_value("GAGACGACTTGGGTTCTAACCTGTTGCCG (site GAGATGACTCC)")
0.0966
>>> numeric_value("TGCGACTCTTGGGTTCTAACCTGTTGCCT (site TGAGACTCTAG)")
1.47
>>> numeric_value("CGTTTCCCTTGGGTTCTAACCTGTTGCGT (site CGTTTCCCTAC)")
1.04
>>> numeric_value("TCTCGGCCTTGGGTTCTAACCTGTTGCCT (site TCTCGGCCTAG)")
0.202
>>> numeric_value("TACCCATCTTGGGTTCTAACCTGTTGCCT (site TATCCATCTAG)")
0.0366
>>> numeric_value("TGTTGAGCTTGGGTTCTAACCTGTTGCAG (site TGTAGAGCTCT)")
0.148
>>> numeric_value("ACGCATTCTTGGGTTCTAACCTGTTGCCT (site ACGCATTCTAG)")
0.355
>>> numeric_value("TCCACACCTTGGGTTCTAACCTGTTGCCT (site TCCACAACTAG)")
0.122
>>> numeric_value("CTAGTCACTTGGGTTCTAACCTGTTGCAC (site CTAGTGTCTGT)")
0.0438
>>> numeric_value("CTAATACCTTGGGTTCTAACCTGTTGCGT (site CTAATACCTAC)")
1.04

---

The following sequences are shown together with reported recombinant barcode read abundance (log10) values.
test.name: recombinant barcode read abundance after kanamycin selection (control-corrected) (log10(CPM+1)); higher = more efficient recombination; sequences stand for … in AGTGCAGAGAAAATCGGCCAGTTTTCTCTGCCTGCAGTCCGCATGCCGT…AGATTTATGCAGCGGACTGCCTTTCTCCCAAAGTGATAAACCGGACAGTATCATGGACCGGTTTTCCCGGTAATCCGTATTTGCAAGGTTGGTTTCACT; site = the 11-nt target
readout: recombinant barcode read abundance (log10)

>>> numeric_value("CTAGCGACTTGGGTTCTAACCTGTTGCTG (site CTAGCGACTCA)")
0.287
>>> numeric_value("TGTCAAACTTGGGTTCTAACCTGTTGCCT (site TGTCAAGCTAG)")
0.145
>>> numeric_value("CAAAAGGCTTGGGTTCTAACCTGTTGCCT (site ATCGTACCTTA)")
0.469
>>> numeric_value("GCGCCTCCTTGGGTTCTAACCTGTTGCAT (site GCGACTCCTAT)")
0.144
>>> numeric_value("CCTAACGCTTGGGTTCTAACCTGTTGCCT (site CCTAACGCTAG)")
0.625

---

test.name: recombinant barcode read abundance after kanamycin selection (control-corrected) (log10(CPM+1)); higher = more efficient recombination; sequences stand for … in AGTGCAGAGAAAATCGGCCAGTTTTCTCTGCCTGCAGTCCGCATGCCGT…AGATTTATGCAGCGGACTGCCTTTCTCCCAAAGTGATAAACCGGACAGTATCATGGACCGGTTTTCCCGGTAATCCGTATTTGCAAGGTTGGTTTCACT; site = the 11-nt target
recombinant barcode read abundance (log10) below 0.2 gives No; recombinant barcode read abundance (log10) at or above it gives Yes.

>>> assigned_class("GCACTAGCTTGGGTTCTAACCTGTTGCGT (site GCACTAGCTAC)")
"Yes"
>>> assigned_class("AGGTTCCCTTGGGTTCTAACCTGTTGCTA (site AGGTTCCCTGA)")
"No"
>>> assigned_class("ACTACTACTTGGGTTCTAACCTGTTGCCA (site ACTACTACTTG)")
"No"
>>> assigned_class("CATATAGCTTGGGTTCTAACCTGTTGCAT (site GATCTAGCTAT)")
"Yes"
>>> assigned_class("GAAAAGTCTTGGGTTCTAACCTGTTGCTG (site CTCGCTCCTTG)")
"No"
>>> assigned_class("GTTAGCCCTTGGGTTCTAACCTGTTGCGG (site GTCAGCCCTCC)")
"No"
>>> assigned_class("GCTTGGACTTGGGTTCTAACCTGTTGCCT (site GCTTTGACTAG)")
"No"
>>> assigned_class("GTACGTCCTTGGGTTCTAACCTGTTGCTT (site GTACGTCCTAA)")
"Yes"
>>> assigned_class("CTGCACCCTTGGGTTCTAACCTGTTGCCT (site CTGCACCCTAG)")
"Yes"
>>> assigned_class("CCTGACACTTGGGTTCTAACCTGTTGCGG (site CCTGACACTCC)")
"Yes"
>>> assigned_class("GGATACACTTGGGTTCTAACCTGTTGCCG (site GGATACACTCG)")
"Yes"
>>> assigned_class("AACGCTCCTTGGGTTCTAACCTGTTGCCT (site AACGCTCCTAG)")
"No"
>>> assigned_class("AATAAGTCTTGGGTTCTAACCTGTTGCCT (site ATTAAGTCTAG)")
"No"
>>> assigned_class("CCTACTACTTGGGTTCTAACCTGTTGCCG (site CCTACTCCTCT)")
"No"
>>> assigned_class("CCGCGAGCTTGGGTTCTAACCTGTTGCCG (site CCGCGAGCTCG)")
"Yes"
>>> assigned_class("CTTACCGCTTGGGTTCTAACCTGTTGCCT (site CTTACAGCTAG)")
"No"
>>> assigned_class("ATTGGCTCTTGGGTTCTAACCTGTTGCCT (site ATTGGCTCTAG)")
"Yes"
>>> assigned_class("ATCCTTACTTGGGTTCTAACCTGTTGCCT (site ACCCTTACTAG)")
"No"
>>> assigned_class("TGTGGAGCTTGGGTTCTAACCTGTTGCCG (site TGTGGAGCTCG)")
"Yes"
>>> assigned_class("TCGTCTCCTTGGGTTCTAACCTGTTGCTT (site TCGTCTCCTAA)")
"No"
>>> assigned_class("GTAACTCCTTGGGTTCTAACCTGTTGCCT (site TGAACTCCTAG)")
"No"
>>> assigned_class("CGATTAACTTGGGTTCTAACCTGTTGCCT (site CGATTATCTAG)")
"No"
>>> assigned_class("CATCCGACTTGGGTTCTAACCTGTTGCTC (site AGATTTCCTAT)")
"No"
>>> assigned_class("TAGCATACTTGGGTTCTAACCTGTTGCCA (site TAGCATACTCG)")
"No"
>>> assigned_class("GTTTGCCCTTGGGTTCTAACCTGTTGCTT (site GTTTGTCCTAA)")
"No"
>>> assigned_class("GGGAACCCTTGGGTTCTAACCTGTTGCTT (site GGGAACCCTAA)")
"Yes"
>>> assigned_class("TCGAGTACTTGGGTTCTAACCTGTTGCCT (site TCGAGTCCTAG)")
"No"
>>> assigned_class("TCGTGCACTTGGGTTCTAACCTGTTGCCT (site TCGTGCACTAG)")
"Yes"
>>> assigned_class("CATCCGCCTTGGGTTCTAACCTGTTGCCT (site CATCCGTCTAG)")
"No"
>>> assigned_class("TAACATACTTGGGTTCTAACCTGTTGCAT (site TAACATACTAT)")
"Yes"
>>> assigned_class("TCGTGCTCTTGGGTTCTAACCTGTTGCCT (site TCGTGCACTAG)")
"No"
>>> assigned_class("CCGTGTCCTTGGGTTCTAACCTGTTGCCG (site CCGTGTCCTCG)")
"Yes"
>>> assigned_class("ACTAGGACTTGGGTTCTAACCTGTTGCAG (site ACTAGAACTTT)")
"No"
>>> assigned_class("CTCTATACTTGGGTTCTAACCTGTTGCCA (site CTCTACACTTG)")
"No"
>>> assigned_class("CAAACTCCTTGGGTTCTAACCTGTTGCAT (site CAAACTCCTAG)")
"No"
>>> assigned_class("GTAAGGACTTGGGTTCTAACCTGTTGCTT (site GTAAGCACTAA)")
"No"
>>> assigned_class("CTCAAAGCTTGGGTTCTAACCTGTTGCGA (site GGGGTCCCTAA)")
"No"
>>> assigned_class("AGGGAATCTTGGGTTCTAACCTGTTGCCT (site AGGGAATCTAG)")
"Yes"
>>> assigned_class("ACCCTATCTTGGGTTCTAACCTGTTGCTT (site ACCCTATCTAA)")
"Yes"
>>> assigned_class("TCACGTCCTTGGGTTCTAACCTGTTGCTT (site TCACGTCCTAA)")
"No"
>>> assigned_class("TAATGGCCTTGGGTTCTAACCTGTTGCGA (site ATGAACACTCA)")
"No"
